# credit: PubChem BioAssay (NCATS)

Tested on: PA-1
Assay: Primary qHTS to identify gynecologic anti-cancer compounds using libraries of approved drugs and bioactive compounds (AID 1345084); further: on the % scale 0 is the no-effect control and ±100 the full control effect; nearly all actives have a fitted effect of over 55% in size
Details: Gynecologic cancer cell panel viability, ATPlite luminescence, 48 h; series mostly up to 57.5 µM
Records with an inconclusive call do not appear. Calls of active or inactive are those of the source. The call rests on the fitted dose curve; in most records, active means well fitted cell-killing curve with a large enough effect; inconclusive means small, poorly fitted or top-dose-only effect, or effect the other way; inactive means flat fitted curve, though single readings scatter. Where a SMILES comes first, the peptide text is derived from it.
parameterMeasured: activity change, negative = cytotoxicity

[[record]]
compound = "CCCCS(=O)(=O)Nc1ncnc(OCCOc2ncc(Br)cn2)c1-c1ccc(Br)cc1"
parametermeasured = "activity change, negative = cytotoxicity"
recordedresult = "inactive"

[[record]]
compound = "CC1(C)CCC(C)(C)c2cc([C@@H](O)C(=O)Nc3ccc(C(=O)O)cc3F)ccc21"
parametermeasured = "activity change, negative = cytotoxicity"
recordedresult = "inactive"

[[record]]
compound = "O=C(O)c1n[nH]c2c1C[C@H]1C[C@@H]21"
parametermeasured = "activity change, negative = cytotoxicity"
recordedresult = "inactive"

[[record]]
compound = "COc1cc(/C=C/C(=O)OC2[C@H](O)CC(O)(C(=O)O)C[C@H]2O)ccc1O (stereo partly specified)"
parametermeasured = "activity change, negative = cytotoxicity"
recordedresult = "inactive"

[[record]]
compound = "COC(=O)C1=COC(O[C@@H]2O[C@H](CO)[C@@H](O)[C@H](O)[C@H]2O)/C(=C\\COC(=O)c2ccc(OC3OC(CO)C(O)C(O)C3O)c(OC)c2)C1CC(=O)OCCc1ccc(O)cc1 (stereo partly specified)"
parametermeasured = "activity change, negative = cytotoxicity"
recordedresult = "-0.972% [at 11.6 µM] (inactive)"

[[record]]
compound = "C[C@@H]1O[C@@H](O[C@@H]2[C@@H](O)[C@H](O[C@@H]3[C@@H](O)[C@@H](O)[C@H](O[C@H]4[C@H](OC(=O)[C@]56CCC(C)(C)C[C@H]5C5=CCC7[C@@]8(C)C[C@H](O)[C@H](O[C@@H]9O[C@H](C(=O)O)[C@@H](O)[C@H](O)[C@H]9O)[C@@](C)(CO)C8[C@H](O)C[C@@]7(C)[C@]5(C)CC6)OC[C@H](O)[C@@H]4O)O[C@H]3C)OC[C@H]2O)[C@H](O)[C@H](O)[C@H]1O (stereo partly specified)"
parametermeasured = "activity change, negative = cytotoxicity"
recordedresult = "3.21% [at 6.55 µM] (inactive)"

[[record]]
compound = "C/C(=C/CO)CC[C@@H]1[C@@]2(C)CCC[C@](C)(C(=O)O)C2CC[C@@]1(C)O (stereo partly specified)"
parametermeasured = "activity change, negative = cytotoxicity"
recordedresult = "inactive"

[[record]]
compound = "CCC(=O)N[C@@H]1Cc2ccccc2[C@H](c2ccccc2)C1"
parametermeasured = "activity change, negative = cytotoxicity"
recordedresult = "inactive"

[[record]]
compound = "CC(=O)NC(CCC(=O)O)C(=O)NCCc1ccc(O)cc1 (stereo unspecified)"
parametermeasured = "activity change, negative = cytotoxicity"
recordedresult = "inactive"

[[record]]
compound = "CC1NC(=O)CNC(=O)C(C(C)C)NC(=O)C2CCCN2C(=O)C(C(C)C)NC(=O)C(Cc2c[nH]c3ccccc23)NC1=O (stereo unspecified) (cyclo(GAWVPV); configuration not given here)"
parametermeasured = "activity change, negative = cytotoxicity"
recordedresult = "inactive"

[[record]]
compound = "CC(CCC1(O)OC2CC3C4CCC5CC(O[C@@H]6O[C@H](CO)[C@@H](O)[C@H](O)[C@H]6O[C@@H]6OC[C@@H](O)[C@H](O)[C@H]6O)C(O)CC5(C)C4CCC3(C)C2C1C)CO[C@@H]1O[C@H](CO)[C@@H](O)[C@H](O)[C@H]1O (stereo partly specified)"
parametermeasured = "activity change, negative = cytotoxicity"
recordedresult = "17.2% [at 11.6 µM] (inactive)"

